# cAMP released with respect to control, 1 nM peptide, UMR-106 cells listing for each entry below
# system: T1, rat PTH-1R (rat PTHR endogenously expressed on UMR-106 rat osteosarcoma cells) (rat, UniProt P25961 27-591)
# T1 sequence (looked up): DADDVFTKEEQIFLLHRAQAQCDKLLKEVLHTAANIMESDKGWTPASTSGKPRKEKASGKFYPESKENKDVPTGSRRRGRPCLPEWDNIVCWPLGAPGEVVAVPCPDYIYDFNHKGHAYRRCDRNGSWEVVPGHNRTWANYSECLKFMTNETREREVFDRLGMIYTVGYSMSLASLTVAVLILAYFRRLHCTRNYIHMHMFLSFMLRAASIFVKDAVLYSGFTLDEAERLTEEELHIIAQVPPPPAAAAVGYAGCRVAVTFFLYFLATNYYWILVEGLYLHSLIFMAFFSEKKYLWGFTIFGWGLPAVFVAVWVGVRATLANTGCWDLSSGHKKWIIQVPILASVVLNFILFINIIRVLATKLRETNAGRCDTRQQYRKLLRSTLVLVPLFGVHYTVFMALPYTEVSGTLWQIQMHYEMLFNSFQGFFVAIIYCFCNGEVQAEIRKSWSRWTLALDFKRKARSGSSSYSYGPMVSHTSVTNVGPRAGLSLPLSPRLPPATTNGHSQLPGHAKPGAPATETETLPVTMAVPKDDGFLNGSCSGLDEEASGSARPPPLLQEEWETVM
# protocol_details: cell-based or functional assay
*1 amine or outer side, *2 acyl side, *3 side chain or, on linkers, in order; H or OH if unused. Where no end group is shown, it is not given here. [ ]: non-standard residue; d: D form. αMe‑APPA = 2-amino-2-methyl-5-phenylpentanoic acid, C[C@@](CCCc1ccccc1)(N[*:1])C(=O)[*:2]; Bip(2'-Et-4'-OMe) = CCc1cc(OC)ccc1-c1ccc(C[C@H](N)C(=O)O)cc1; Arg(NO2) = N=C(NCCC[C@H](N)C(=O)O)N[N+](=O)[O-]; αMePhe(2,6-F2) = C[C@](N)(Cc1c(F)cccc1F)C(=O)O; αMePhe(2-F) = C[C@](N)(Cc1ccccc1F)C(=O)O; αMeW = C[C@](N)(Cc1c[nH]c2ccccc12)C(=O)O; hhPhe = N[C@@H](CCCc1ccccc1)C(=O)O; hArg = N=C(N)NCCCC[C@H](N)C(=O)O; αMeF = C[C@](N)(Cc1ccccc1)C(=O)O; Cit = NC(=O)NCCC[C@H](N)C(=O)O; αMeM = CSCC[C@](C)(N)C(=O)O; Nle = CCCC[C@H](N)C(=O)O; Ac3c = NC1(C(=O)O)CC1; Aib = CC(C)(N)C(=O)O

**Q:** Please report the recorded cAMP released with respect to control, 1 nM peptide, UMR-106 cells for [Ac3c]V[Aib]EIQL[Nle]HQ[hArg][Aib]K[αMeF] [Seq. ID. 15] .
**A:** 28 percent of control

**Q:** Please report the recorded cAMP released with respect to control, 1 nM peptide, UMR-106 cells for [Aib]V[Aib]EIQ[αMePhe(2,6-F2)][Nle]HQ[hArg]A[Arg(NO2)][αMePhe(2,6-F2)] [Seq. ID. 271] .
**A:** 46 percent of control

**Q:** Please report the recorded cAMP released with respect to control, 1 nM peptide, UMR-106 cells for [Ac3c]V[Aib]EIQ[αMePhe(2,6-F2)][Nle]HQ[hArg]A[Arg(NO2)][Bip(2'-Et-4'-OMe)][hhPhe] [Seq. ID. 694] .
**A:** 19 percent of control

**Q:** Please report the recorded cAMP released with respect to control, 1 nM peptide, UMR-106 cells for V[Ac3c]V[Aib]EIQL[αMeM]HQ[hArg]A[hArg][αMeW][αMe‑APPA] [Seq. ID. 950] .
**A:** 26 percent of control

**Q:** Please report the recorded cAMP released with respect to control, 1 nM peptide, UMR-106 cells for [Aib]V[Aib]EIQ[αMePhe(2,6-F2)][Nle]HQ[hArg][Aib][Cit][αMePhe(2-F)] [Seq. ID. 132] .
**A:** 29 percent of control

Cited source for all entries: patent US8383581B2
